Assay: Bacterial sludge contact test
Conditions: bacterial sludge; Day 4, with sludge
quantity_kind: percent perfluoroolefin/perfluoromonohydride formed at 96 h, 1000 µM (%)
# value in %; strip the unit string

Input line: I'd like to know its percent perfluoroolefin/perfluoromonohydride formed at 96 h, 1000 µM. The compound in question is O=C(O)C(F)(C(F)(F)F)C(F)(F)C(F)(F)C(F)(F)C(F)(F)C(F)(F)C(F)(F)F (stereo not shown)
Output line: 13

====

Assay: Surface tension and critical micelle concentration of aqueous surfactant solutions
Format: physicochemical
Conditions: Table 3; at the CMC, deionized water
quantity_kind: Surf. Tens. (dynes/cm)
Response body: numeric value in dynes/cm, unit text excluded.

Input line: Surf. Tens. for C[N+](C)([O-])CCCNC(=O)C(F)(C(F)(F)F)C(F)(F)C(F)(F)C(F)(F)C(F)(F)C(F)(F)C(F)(F)C(F)(F)F (stereo not drawn) [Example E1, C7 F15 CF(CF3)CONH(CH2)3 N^+ (CH3)2 O^-] ?
Output line: 16.3

Input line: Which value of Surf. Tens. has been reported for C[N+](C)(CCO)CCCNC(=O)C(F)(C(F)(F)F)C(F)(F)C(F)(F)C(F)(F)C(F)(F)C(F)(F)C(F)(F)C(F)(F)F (stereo not drawn) in the records?
Output line: 19.0

Input line: Given the entry C[N+](C)([O-])CCCNC(=O)C(F)(C(F)(F)F)C(F)(F)C(F)(F)C(F)(F)C(F)(F)C(F)(F)C(F)(F)C(F)(F)C(F)(F)F (stereo not drawn) , report its measured Surf. Tens..
Output line: 16.5

====

Assay: Surface tension and critical micelle concentration of aqueous surfactant solutions
Assay type: physicochemical
Conditions: Table 3; at the CMC, deionized water
quantity_kind: Surf. Tens. (dynes/cm)
Please respond with the number in dynes/cm and leave the unit unwritten.

Input line: Quick check: Surf. Tens. of O=C(NCCC[N+]1(CCO)CCOCC1)C(F)(C(F)(F)F)C(F)(F)C(F)(F)C(F)(F)C(F)(F)C(F)(F)C(F)(F)C(F)(F)F (centres unmarked) ?
Output line: 20.8

Input line: Entry CN(C)CCCN(CCCN(C)C)C(=O)C(F)(C(F)(F)F)C(F)(F)C(F)(F)C(F)(F)C(F)(F)C(F)(F)C(F)(F)C(F)(F)F (centres unmarked) : reported Surf. Tens. = ?
Output line: 22.0

Input line: Return reported Surf. Tens.; argument: C[N+](C)(CCO)CCCNC(=O)C(F)(C(F)(F)F)C(F)(F)C(F)(F)C(F)(F)C(F)(F)C(F)(F)F (centres unmarked)
Output line: 17.0

Input line: # query: Surf. Tens. of entry C[N+](C)([O-])CCCNC(=O)C(F)(C(F)(F)F)C(F)(F)C(F)(F)C(F)(F)C(F)(F)C(F)(F)C(F)(F)F (centres unmarked)
Output line: 16.6

Input line: Tell me the measured Surf. Tens. of O=C(NCCOC(=O)C(F)(C(F)(F)F)C(F)(F)C(F)(F)C(F)(F)C(F)(F)C(F)(F)C(F)(F)F)c1cc[n+]([O-])cc1 (centres unmarked) , please.
Output line: 15.5

====

Could you please report measured Temperature for: 90% loss for the items listed next?
Test: Thermogravimetric analysis of neat perfluorocarboxylate salts
Format: physicochemical
Details: neat salt, nitrogen, 10° C./min
Procedure: […] The perfluorocarboxylate salts were tested using a Perkin-Elmer TGA 7 thermogravimetric analysis apparatus and a salt sample size of approximately 5 mg, a heating rate of 10° C./min, and a nitrogen gas flow rate of 40-45 mL/min. Using the TGA 7 software, the following temperatures were recorded: (1) the onset temperature of decomposition, (2) the temperature at which 50% of the sample weight was lost, and (3) the temperature at which 90% of the sample weight was lost.
Could you give me the number in °C? Just the number is fine.

Input line: Fill blank: measured Temperature for: 90% loss of the compound O=C(O)C(F)(C(F)(F)F)C(F)(F)C(F)(F)C(F)(F)C(F)(F)C(F)(F)C(F)(F)C(F)(F)F (stereo not shown) [Example M14, C7 F15 CF(CF3)COO^- H4 N^+] is ____.
Output line: 174

Input line: Endpoint output: Temperature for: 90% loss of O=C(O)C(F)(C(F)(F)C(F)(F)F)C(F)(F)C(F)(F)C(F)(F)C(F)(F)C(F)(F)C(F)(F)F (stereo not shown) [Example M19, C6 F13 CF(C2 F5)COO^- H4 N^+] . Value?
Output line: 188

Input line: I have this compound here, O=C(O)C(F)(C(F)(F)F)C(F)(F)C(F)(F)C(F)(F)C(F)(F)C(F)(F)C(F)(F)F (stereo not shown) [Example M16, C6 F13 CF(CF3)COO^- H4 N^+] , and I need its recorded Temperature for: 90% loss.
Output line: 193

Input line: Consider the compound O=C(O)C(F)(C(F)(F)F)C(F)(F)C(F)(F)C(F)(F)C(F)(F)C(F)(F)C(F)(F)C(F)(F)C(F)(F)C(F)(F)C(F)(F)F (stereo not shown) [Example M18, C10 F21 CF(CF3)COO^- H4 N^+] and give its measured Temperature for: 90% loss.
Output line: 188
